Measured values drawn from patent USRE46585 for this set.

tgt: T1, FcRn-p3 fusion protein (human, UniProt P55899 24-297; P61769 21-119)
T1 construct: baculovirus expressed; coated on ELISA wells; not shown: amino terminal part of bacteriophage p3 protein and CVDE protein
method: phage ELISA pH6
What Ratio/Fc-H was measured for each of the following?
Answers are plain numbers, in fold.

Use the examples below as a reference point.
[[record]]
binder = "C8A_15 (other, EU numbering) CPPCPAPELLGGPSVFLFPPKPKDTLMISRTPEVTCVVVDVSHEDPEVKFNWYVDGVEVHNAKTKPREEQYNSTYRVVSVLTVLHQDWLDGKEYKCKVSNKVLPVPIEKTISKAKGQPREPQVYTLPPSRDELTKNQVSLTCLVKGFYPSDIAVEWESNGQPENNYKTTPPMLDSDGSFFLYSKLTVDKSRWQQGNVFSCSVMHEALHYHYTQKSLSLSPGK"
measurement_label = "Ratio/Fc-H"
numeric_value = 7.4

[[record]]
binder = "M3B_04 (other, EU numbering) CPPCPAPELLGGPSVLLFPPKPKDTLMISRTPEVTCVVEDVSHEDPEVKFNWYVDGVEVHNAKTKPREEQYNSTYRVVSVLTVLHQDWLNGKEYKCKVSNKALPAPIEKTISKAKGRPREPQVYTLPPSRDELTKNQVSLTCLVKGFYPSDIVVEWESNGQPENNYKTTPPVLDSDGSFFLYSKLTVDKSRWQQGNVFSCSVMHEALHNHYTQKSLSLSPGK"
measurement_label = "Ratio/Fc-H"
numeric_value = 1.7


Please turn your attention to the following entry.
[ask] Return reported Ratio/Fc-H; argument: C5A_65 (other, EU numbering) CPPCTAPELLGGPSVFLFPPKPKDTLMISRTPEVTCVVVDVSHEDPEVKFNWYVDGVEVHNAKTKPREEQYNSTYRVVSVLTVLHQDWLDGKEYKCKVSNKALPVPIEKTISKAKGQPREPQVYTLPPSRDELTKNQVSLTCLVKGFYPSDIAVEWESNGKPENNYKTTPPVLDSDGSFFLYSKLTVDKSRWQQGNVFSCSVMHEALHYHYTQKSLSLSPGK
[reply] 4.2
